These measurements were taken from ChEMBL document CHEMBL1135517.

Molecular target: Adenosine receptor A1 (Homo sapiens, UniProt P30542)
Sequence (P30542 whole entry): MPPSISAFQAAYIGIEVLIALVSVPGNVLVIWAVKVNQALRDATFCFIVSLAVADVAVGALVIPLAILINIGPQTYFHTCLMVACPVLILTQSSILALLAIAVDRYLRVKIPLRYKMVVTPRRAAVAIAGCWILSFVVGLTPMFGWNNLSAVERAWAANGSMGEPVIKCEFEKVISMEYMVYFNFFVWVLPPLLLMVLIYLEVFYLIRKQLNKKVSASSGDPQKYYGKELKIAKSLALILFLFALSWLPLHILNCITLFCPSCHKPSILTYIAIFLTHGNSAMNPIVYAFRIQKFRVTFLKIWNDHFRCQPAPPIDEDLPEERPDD
Experiment: Binding affinity against Human recombinant Adenosine A1 receptor stably transfected in CHO cells using [3H]CCPA as radioligand
pKi: −log10 of the molar value.
Threshold check on pKi: at or above 8 gives true (1), strictly below gives false (0).

Threshold query (pKi >= 8) on CC(C)Nc1nc(C#C[C@H](O)c2ccccc2)nc2c1ncn2[C@@H]1O[C@H](CO)[C@@H](O)[C@H]1O true (1)

Please tell me: is the molecule CCNc1nc(C#C[C@@H](O)c2ccccc2)nc2c1ncn2[C@@H]1O[C@H](CO)[C@@H](O)[C@H]1O at or over 8 in terms of pKi? true (1)

Is reported pKi greater than or equal to 8 here: CCNC(=O)[C@H]1O[C@@H](n2cnc3c(N)nc(C#C[C@H](O)c4ccccc4)nc32)[C@H](O)[C@@H]1O true (1)

Can CCNc1nc(C#CC(O)c2ccccc2)nc2c1ncn2[C@@H]1O[C@H](CO)[C@@H](O)[C@H]1O (stereo partly specified) be said to have pKi at or above 8? true (1)

Determine whether measured pKi meets or exceeds 8 for CCNC(=O)[C@H]1O[C@@H](n2cnc3c(N)nc(C#C[C@@H](O)c4ccccc4)nc32)[C@H](O)[C@@H]1O true (1)

Does the reported pKi for CNc1nc(C#Cc2ccccc2)nc2c1ncn2[C@@H]1O[C@H](CO)[C@@H](O)[C@H]1O fall at or above the 8 mark? false (0)

Would you say CCCCC#Cc1nc(NCC)c2ncn([C@@H]3O[C@H](CO)[C@@H](O)[C@H]3O)c2n1 shows pKi at minimum 8? false (0)

Would you say CCNc1nc(C#Cc2ccccc2)nc2c1ncn2C1O[C@H](CO)[C@@H](O)[C@H]1O (stereo partly specified) shows pKi at minimum 8? false (0)

Decide: is the reported value of pKi for Nc1nc(C#C[C@H](O)c2ccccc2)nc2c1ncn2[C@@H]1O[C@H](CO)[C@@H](O)[C@H]1O equal to or greater than 8? true (1)

Test whether the molecule Nc1nc(C#C[C@@H](O)c2ccccc2)nc2c1ncn2[C@@H]1O[C@H](CO)[C@@H](O)[C@H]1O records pKi of 8 or higher. true (1)

Given the entry CC(C)(C)OC(=O)C1CCCN1C[C@@H](O)[C@H](Cc1ccccc1)NC(=O)[C@H](CC(N)=O)NC(=O)OCc1ccccc1 (stereo partly specified) , answer whether its pKi meets or surpasses 8. false (0)

Given CCCCC#Cc1nc(NC)c2ncn([C@@H]3O[C@H](CO)[C@@H](O)[C@H]3O)c2n1 , state whether its pKi is at least 8. false (0)

Is pKi at least 8? Consider CC(C)Nc1nc(C#CC(O)c2ccccc2)nc2c1ncn2[C@@H]1O[C@H](CO)[C@@H](O)[C@H]1O (stereo partly specified) true (1)

I'd appreciate it if you could say whether CCCCC#Cc1nc(NC(C)C)c2ncn([C@@H]3O[C@H](CO)[C@@H](O)[C@H]3O)c2n1 has pKi at least equal to 8. false (0)

Is pKi for CC(C)Nc1nc(C#Cc2ccccc2)nc2c1ncn2[C@@H]1O[C@H](CO)[C@@H](O)[C@H]1O at or above 8? false (0)

Hi, just wondering whether CCNC(=O)[C@H]1O[C@@H](n2cnc3c(N)nc(C#CC(O)c4ccccc4)nc32)[C@H](O)[C@@H]1O (mixture of isomers) shows pKi of 8 or higher. true (1)
